For each record, write down the corresponding melting point.

Completed entries (count: 2):
Value lookup for melting point; key = Cc1nn(Cc2ccc3[nH]cc(C(=O)O)c(=O)c3c2)c(C)c1Cl [Compound 11b]
263 to 265 °C

Value lookup for melting point; key = Cc1cc(C)n(Cc2ccc3c(c2)c(=O)c(C(=O)O)cn3Cc2ccc([N+](=O)[O-])cc2)n1 [Compound 16a]
274 to 276 °C

Hey, can you go through the list below and give me melting point for every item?
1. Cc1nn(Cc2ccc3c(c2)c(=O)c(C(=O)O)cn3Cc2ccc(F)cc2)c(C)c1Cl [Compound 15b]
2. Cc1nn(Cc2ccc3c(c2)c(=O)c(C(=O)O)cn3CC(O)CO)c(C)c1Br (stereo not shown) [Compound 12c]

1: 239 to 241 °C; 2: 267 to 269 °C

====

For each record, write down the corresponding melting point.

Completed entries (count: 3):
Value lookup for melting point; key = Cc1cc(C)n(Cc2ccc3c(c2)c(=O)c(C(=O)O)cn3Cc2ccc(F)cc2)n1 [Compound 15a]
271 to 273 °C

Value lookup for melting point; key = Cc1nn(Cc2ccc3c(c2)c(=O)c(C(=O)O)cn3Cc2ccc([N+](=O)[O-])cc2)c(C)c1Br [Compound 16c]
266 to 268 °C

Value lookup for melting point; key = Cc1nn(Cc2ccc3c(c2)c(=O)c(C(=O)O)cn3Cc2ccc([N+](=O)[O-])cc2)c(C)c1Cl [Compound 16b]
282 to 284 °C

Now for the compound whose melting point we want.
Value lookup for melting point; key = Cc1cc(C)n(Cc2ccc3c(c2)c(=O)c(C(=O)O)cn3CC(=O)O)n1 [Compound 13a]
> 300 °C

====

For each record, write down the corresponding melting point.

Completed entries (count: 5):
Value lookup for melting point; key = Cc1nn(Cc2ccc3c(c2)c(=O)c(C(=O)O)cn3CC(O)CO)c(C)c1Cl (stereo not shown) [Compound 12b]
278 to 280 °C

Value lookup for melting point; key = Cc1nn(Cc2ccc3c(c2)c(=O)c(C(=O)O)cn3CCCS)c(C)c1Br [Compound 14c]
231 to 233 °C

Value lookup for melting point; key = Cc1nn(Cc2ccc3c(c2)c(=O)c(C(=O)O)cn3Cc2ccc(F)cc2)c(C)c1Br [Compound 15c]
255 to 257 °C

Value lookup for melting point; key = Cc1nn(Cc2ccc3[nH]cc(C(=O)O)c(=O)c3c2)c(C)c1Br [Compound 11c]
253 to 256 °C

Value lookup for melting point; key = Cc1nn(Cc2ccc3c(c2)c(=O)c(C(=O)O)cn3CCCS)c(C)c1Cl [Compound 14b]
238 to 240 °C

Hey, can you go through the list below and give me melting point for every item?
1. Cc1cc(C)n(Cc2ccc3c(c2)c(=O)c(C(=O)O)cn3CCCS)n1 [Compound 14a]
2. Cc1nn(Cc2ccc3c(c2)c(=O)c(C(=O)O)cn3CC(=O)O)c(C)c1Cl [Compound 13b]

1: 225 to 226 °C; 2: 292 to 295 °C

Hey, can you go through the list below and give me melting point for every item?
1. Cc1nn(Cc2ccc3c(c2)c(=O)c(C(=O)O)cn3CC(=O)O)c(C)c1Br [Compound 13c]
2. Cc1cc(C)n(Cc2ccc3[nH]cc(C(=O)O)c(=O)c3c2)n1 [Compound 11a]
3. Cc1cc(C)n(Cc2ccc3c(c2)c(=O)c(C(=O)O)cn3CC(O)CO)n1 (stereo not shown) [Compound 12a]

["278 to 280 °C", "254 to 256 °C", "187 to 189 °C"]
